What growth was measured for each of the following?
- System: NCI-H460 lung
- ASSAY SUMMARY: NCI-60 one-dose screen, 48 h (100 = growth as untreated, 0 = no growth, -100 = all killed)
- CONDITION SET: 10 µM unless noted
Compounds without any hit were thinned out: in the full panel of roughly 83,000, 20% have a hit.
Answers are plain numbers, in %.

{"columns": ["COMPOUND", "MEASURED RESULT"],
 "data": [
  ["CCN1CCN(S(=O)(=O)c2oc(-c3ccc(Cl)cc3)nc2C#N)CC1", 105],
  ["Cc1cc2nc3c4cc(Cl)ccc4n(CC(=S)NCCN(C)C)c3nc2cc1C", -90.2],
  ["Cc1cc(C(=O)Nc2sc3c(c2C(N)=O)CCC(=O)C3)ccc1OCCN1CCCCC1", 99.4],
  ["COc1cc(/C=C/C(=O)c2cc(OC)c(OC)c(OC)c2)ccc1OCc1ccc(F)cc1", 54],
  ["COc1ccc(-c2nc3ccc(-c4nnc(SCC(=O)Nc5ccc(C(C)=O)cc5)o4)cc3[nH]2)cc1", 103],
  ["O=C(CN1CCOCC1)NNc1ncnc2ccccc12", 108],
  ["CN(C)CCCOc1c2ccc(Cl)cc2nc2c1oc1ccccc12", 7.64],
  ["COc1ccc(Cc2nn(CC(=O)N/N=C/c3ccc(Cl)cc3)c(=O)c3c(C)noc23)cc1", 64.9]
]}

The following compounds each have a reported value; give each one's growth.
1. C=C1CC[C@H]2[C@@](C)(CCC3OC(c4ccc(OCc5cn(C6CC(OC(C)=O)C(OC(C)=O)C(COC(C)=O)O6)nn5)cc4)OC[C@]32C)[C@@H]1/C=C/C1=CCOC1=O (stereo not given in full)
2. O=C1c2c(c3c4cccnc4[nH]c3c3ccc4ccccc4c23)C(=O)N1CCO

**Result**
85.8
17.6

* * *

- System: BT-549 breast
- ASSAY SUMMARY: NCI-60 one-dose screen, 48 h
- CONDITION SET: 10 µM unless noted
About 83,000 compounds went through this panel and 20% of them were active in at least one assay; those are over-represented in the sample as a whole. Activity calls are given as the source filed them. How the source made its calls: active means growth percent below 10; inactive means the rest.
Use one of these outcomes when replying: active, inactive

{"columns": ["STRUCTURE", "CATEGORY"],
 "data": [
  ["O=C(CN1CCOCC1)NNc1ncnc2ccccc12", "inactive"],
  ["COc1ccc(CNS(=O)(=O)/N=C2\\NC(=O)NC2=C(Cl)Cl)cc1", "active"],
  ["N[C@@H](Cc1cn(-c2c3ccccc3nc3ccccc23)nn1)C(=O)O", "inactive"],
  ["CC(=NNc1ncnc2ccccc12)c1ccc(S(C)(=O)=O)cc1", "inactive"],
  ["C=CCSc1ccc2c(c1)C(N1CCNCC1)=Nc1ccccc1O2", "inactive"],
  ["CC(C)NC(=O)c1cc(-c2ccc(NC(=O)Nc3ccc(N4CCOCC4)c(C(F)(F)F)c3)cc2)nc2cccnc12", "inactive"],
  ["CNC(=O)c1cc(-c2ccc(NC(=O)Nc3ccc(N4CCOCC4)c(C(F)(F)F)c3)cc2)nc2cccnc12", "inactive"],
  ["Fc1ccc(-c2cc3nc(C(Cl)Cl)nc(-c4ccccc4)n3n2)cc1", "inactive"]
]}

**Query** For `O=C(NNc1nc2cc(F)ccc2n2c(CN3CC4(COC4)C3)ccc12)c1cnccn1` , which call appears in the assay record?
**Result** inactive

**Query** Field: outcome | Entry: `O=C(CCN1C(=O)/C(=C/c2ccccc2F)SC1=S)N1CCOCC1`
**Result** inactive

* * *

- Test system: MDA-MB-435 melanoma
- ASSAY SUMMARY: NCI-60 one-dose screen, 48 h (100 = growth as untreated, 0 = no growth, -100 = all killed)
- CONDITION SET: 10 µM unless noted
Compounds without any hit were thinned out: in the full panel of roughly 83,000, 20% have a hit.
One threshold, 50%, splits the recorded growth values: lower ones are rule met, equal or higher ones are rule not met.

{"columns": ["COMPOUND", "ASSAY TARGET", "CATEGORY"],
 "data": [
  ["C#Cc1nc(C2=C(C)C(=N\\O)/C(=N/O)C2)cs1", "MDA-MB-435 melanoma", "rule not met"],
  ["N/C(=N\\c1nc2c(Cl)cc(Cl)cc2s1)C(Cl)(Cl)Cl", "MDA-MB-435 melanoma", "rule not met"],
  ["COc1ccc(C(=O)c2cc(C(=O)/C=C/c3c(Cl)cccc3Cl)c3cc(C)ccn23)cc1", "MDA-MB-435 melanoma", "rule not met"],
  ["Cc1c(NC(=O)CSc2nc3sc4c(c3c(=O)n2-c2ccc(Cl)cc2)CCCC4)c(=O)n(-c2ccccc2)n1C", "MDA-MB-435 melanoma", "rule not met"],
  ["COc1cc(/C=C/C(=O)c2ccc(F)cc2)ccc1Oc1nc(NCCO)nc(N2CCOCC2)n1", "MDA-MB-435 melanoma", "rule met"]
]}

**Query** Identify whether the compound `O=C1c2c(c3c4cccnc4[nH]c3c3ccc4ccccc4c23)C(=O)N1CCO` records growth below 50%.
**Result** rule not met

* * *

- System: NCI-H460 lung
- ASSAY SUMMARY: NCI-60 one-dose screen, 48 h (100 = growth as untreated, 0 = no growth, -100 = all killed)
- CONDITION SET: 10 µM unless noted
About 83,000 compounds went through this panel and 20% of them were active in at least one assay; those are over-represented in the sample as a whole.
OBSERVED PROPERTY: growth (%)
Numbers only, in %.

Guide cases for growth, answers given:
{"columns": ["COMPOUND", "UNIT OF MEASUREMENT", "growth"],
 "data": [
  ["O=C(CSc1nc2sc3c(c2c(=O)n1-c1ccc(Cl)cc1)CCCC3)NNC(=O)Nc1cccc(C(F)(F)F)c1", "%", 5.83],
  ["CCOC(=O)c1c(Nc2ccccc2)nn2c(N)c(C#N)c(-c3ccc(Cl)cc3)nc12", "%", 12.1],
  ["Nc1nc(N)c2c(n1)NC(c1ccc(F)cc1)CC(c1ccc(Nc3nc(NCCO)nc(Nc4ccc(Cl)cc4)n3)cc1)=N2 (configuration not stated)", "%", -54.5]
]}

For each of the compounds below, note its growth.
1. CCCC(=O)NC(c1cccc(N(C)C)c1)c1cc(C)c2cccnc2c1O (configuration not stated)
2. CCCCCCNC(=O)Oc1ccc(/C(=C(/C)c2ccccc2)c2ccc(OCCN3CCCCCC3)cc2)cc1
3. O=C(N/N=C/c1ccc([N+](=O)[O-])o1)c1[nH]c2ccc(Br)cc2c1-c1ccccc1
4. C#Cc1nc(C2=C(C)C(OC(=O)CCC(=O)O)CC2)cs1 (configuration not stated)

**Result**
[25.7, 6.58, -31.4, 107]

* * *

- System: TK-10 renal
- ASSAY SUMMARY: NCI-60 one-dose screen, 48 h (100 = growth as untreated, 0 = no growth, -100 = all killed)
- CONDITION SET: 10 µM unless noted
Compounds without any hit were thinned out: in the full panel of roughly 83,000, 20% have a hit.
OBSERVED PROPERTY: growth (%)
One number for each entry, in %.

For the 5 compounds below, give their growth values.
1. C#Cc1nc(C2=C(C)C(=N\O)/C(=N/O)C2)cs1
2. C#Cc1nc(C2=C(C)C(=O)/C(=N/OC(C)=O)C2)cs1
3. CN1C(=S)N(C)C2C1NN=C1SC(c3ccccc3)=CC(=O)N12 (stereo not given)
4. COc1ccc(-c2nc3ccc(-c4nnc(SCC(=O)Nc5ccc(C(C)=O)cc5)o4)cc3[nH]2)cc1
5. COc1ccc(-n2c(SCC(=O)Nc3ccc(-c4nc5ccccc5[nH]4)cc3)nc3ccccc3c2=O)cc1

**Result**
1. 196
2. 151
3. 97.7
4. 116
5. 107

* * *

- Test system: CAKI-1 renal
- ASSAY SUMMARY: NCI-60 one-dose screen, 48 h (100 = growth as untreated, 0 = no growth, -100 = all killed)
- CONDITION SET: 10 µM unless noted
This is part of a sample that, as a whole, favours compounds with a hit. Of some 83,000 tested, about 20% had one in any assay.
Label true (1) when growth is strictly below 40%; otherwise label false (0).

Solved cases (5 shown):
{"columns": ["MOLECULE", "CATEGORY"],
 "data": [
  ["O=C1c2c(c3c4cc(Br)ccc4[nH]c3c3ccc4ccccc4c23)C(=O)N1CCO", "false (0)"],
  ["CO/N=C1\\CCc2c(sc(NC(=O)c3cccc(C(F)(F)F)c3)c2C(N)=O)C1", "true (1)"],
  ["COC(=O)C1CN(S(=O)(=O)/N=C2\\NC(=O)NC2=C(Cl)Cl)C1", "false (0)"],
  ["COC1CCN(Cc2ccc3c(NNC(=O)c4cnccn4)nc4cc(F)ccc4n23)C1 (centres undefined)", "true (1)"],
  ["CCN(CC)c1ccc(C=O)c(OCc2cn(CC(=O)Nc3ccc(Cl)cc3)nn2)c1", "false (0)"]
]}

**Query** Please check: growth for `Cc1ccc2ccc3ccc(C)nc3c2n1.Cc1ccc2ccc3ccc(C)nc3c2n1.Oc1c(Cl)cc(Cl)c2ccc(CN3CCCCC3)nc12.[Ru]` , strictly under 40% or not?
**Result** true (1)

**Query** For `COc1cc(/C=C/C(=O)c2cc(OC)c(OC)c(OC)c2)ccc1OCc1ccc(F)cc1` , is the recorded growth below the cut-off of 40%?
**Result** false (0)

**Query** Could you please tell me whether growth recorded for `COc1cc(/C=C/C(=O)c2ccc(Cl)cc2)ccc1Oc1nc(NCCO)nc(N2CCOCC2)n1` is less than 40%?
**Result** false (0)
